# Experiment Description: Solubility in PEG400 based vehicles
# Format: physicochemical
# Conditions: organic solvent or mixture; in PEG400 based LSF (PEG400/Tween 80/L-Menthol 97:2, 5:0, 5)
Property Name: solubility

Reported solubility, compound COc1cc(S(C)(=O)=O)ccc1Nc1nc2ccc(-c3ccc(NC(=O)[C@H](C)c4ccc(F)cc4)cc3)cn2n1 [compound A] : ____
~25 mg/mL

###

# Experiment Description: Solubility in PEG400 based vehicles
# Assay type: physicochemical
# Conditions: organic solvent or mixture; in PEG400/PVP 8:2
Property Name: solubility

Reported solubility, molecule COc1cc(S(C)(=O)=O)ccc1Nc1nc2ccc(-c3ccc(NC(=O)[C@H](C)c4ccc(F)cc4)cc3)cn2n1 : ____
~25 mg/mL

###

# Experiment Description: Solubility in PEG400 based vehicles
# Format: physicochemical
# Conditions: aqueous with cosolvent or surfactant or cyclodextrin; in PEG400/PVP/water 8:1:1
Property Name: solubility

Reported solubility, molecule COc1cc(S(C)(=O)=O)ccc1Nc1nc2ccc(-c3ccc(NC(=O)[C@H](C)c4ccc(F)cc4)cc3)cn2n1 : ____
~25 mg/mL
